Cited source: patent US20180326085A1

- Assay target: T1, EGFR on cells (human, UniProt P00533)
- T1 construct: endogenous receptor on the cell surface; for A549 cells m5 is used; also called on NCI-H441, EBC-1, A431, MKN-45, HepG2 or T47D cells (cell line under assay)
- Procedure details: flow cytometry, A431 cells (c-MET+ EGFR+++)
Listed here are binders together with their documented MFI at 100 nM.
The response must contain the number and no unit.

Illustrative cases are given below, each with its answer.
oa 225-L (antibody, V domains shown, one-armed (monovalent) anti-EGFR SEED molecule) VH: EVQLVQSGAEVKKPGASVKVSCKASGFSLTNYGVHWMRQAPGQGLEWIGVIWRGGNTDYNTPFTSRVTITSDKSTSTAYMELSSLRSEDTAVYYCARALTYYDYEFAYWGQGTLVTVSS VL: DIQMTQSPSSLSASVGDRVTITCRASQSIGTNIHWYQQKPGKAPKLLIKYASESISGVPSRFSGSGYGTDFTLTISSLQPEDVATYYCQQNNNWPTTFGQGTKVEIK
1260
oa225-M (antibody, V domains shown, one-armed (monovalent) anti-EGFR SEED molecule) VH: EVQLVQSGAEVKKPGASVKVSCKASGFSLTNYGVHWMRQAPGQGLEWIGVIWSGGNTDYNTPFTSRVTITSDKSTSTAYMELSSLRSEDTAVYYCARALTYYDYEFAYWGQGTLVTVSS VL: DIQMTQSPSSLSASVGDRVTITCRASQSIGTNIHWYQQKPGKAPKLLIKYASESISGVPSRFSGSGYGTDFTLTISSLQPEDVATYYCQQNYNWPTTFGQGTKVEIK
1500

What the record says about oa 425 (antibody, V domains shown, one-armed (monovalent) anti-EGFR SEED molecule) VH: QVQLVQSGAEVKKPGASVKVSCKASGYTFTSHWMHWVRQAPGQGLEWIGEFNPSNGRTNYNEKFKSKATMTVDTSTNTAYMELSSLRSEDTAVYYCASRDYDYDGRYFDYWGQGTLVTVSS VL: DIQMTQSPSSLSASVGDRVTITCSASSSVTYMYWYQQKPGKAPKLLIYDTSNLASGVPSRFSGSGSGTDYTFTISSLQPEDIATYYCQQWSSHIFTFGQGTKVEIKR : MFI at 100 nM is 1150

binder oa 225-H (antibody, V domains shown, one-armed (monovalent) anti-EGFR SEED molecule) VH: EVQLVQSGAEVKKPGASVKVSCKASGFSLTNYGVHWMRQAPGQGLEWIGVIWSGGNTDYNTPFTSRVTITSDKSTSTAYMELSSLRSEDTAVYYCARALDYYDYEFAYWGQGTLVTVSS VL: DIQMTQSPSSLSASVGDRVTITCRASQSIGTNIHWYQQKPGKAPKLLIKYASESISGVPSRFSGSGYGTDFTLTISSLQPEDVATYYCQQNNEWPNTFGQGTKVEIK , MFI at 100 nM observed: 2230
